experiment: Cytotoxicity measured as % loss of cells after 120 min; format: cell-based; settings: rat, 2 h
property_label: Loss of cells (%)

| compound | value_reported |
| --- | --- |
| NC1C=C(c2ccccc2)CCC1 (centres undefined) | 60 |
| C#CCN(C)Cc1ccccc1.NC1C=C(c2ccccc2)CCC1 (centres undefined) | 69 |
| CN1CC=C(c2ccccc2)CC1 | 81 |
| C#CCN(C)Cc1ccccc1.CN1CC=C(c2ccccc2)CC1 | 5 |

====

pKi: −log10 of the molar value.
Target or system UniProtKB P56560: recorded pKi listed per item.
Sequence (P56560 whole entry, looked up): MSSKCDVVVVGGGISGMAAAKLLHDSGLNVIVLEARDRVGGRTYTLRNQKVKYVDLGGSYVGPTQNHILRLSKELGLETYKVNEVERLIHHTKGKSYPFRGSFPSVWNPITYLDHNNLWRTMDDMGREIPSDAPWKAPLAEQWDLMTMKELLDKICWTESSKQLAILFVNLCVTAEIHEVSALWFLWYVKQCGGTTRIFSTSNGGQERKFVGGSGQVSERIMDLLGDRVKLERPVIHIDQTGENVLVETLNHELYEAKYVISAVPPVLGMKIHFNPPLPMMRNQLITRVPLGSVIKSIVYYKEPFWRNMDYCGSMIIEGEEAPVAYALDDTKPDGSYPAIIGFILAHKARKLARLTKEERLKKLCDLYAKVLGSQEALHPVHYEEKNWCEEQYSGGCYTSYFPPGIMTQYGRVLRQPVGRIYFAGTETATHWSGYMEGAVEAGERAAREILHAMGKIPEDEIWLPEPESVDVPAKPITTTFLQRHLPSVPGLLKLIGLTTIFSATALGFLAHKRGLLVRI

| molecule | target_or_test_system | pKi |
| --- | --- | --- |
| CN(C)C1C=C(c2ccccc2)CCC1 (centres undefined) | UniProtKB P56560 | 2.98 |
| NC1C=C(c2ccccc2)CCC1 (centres undefined) | UniProtKB P56560 | 3.29 |
| CN(C)C/C=C/c1ccccc1 | UniProtKB P56560 | 2.87 |
| C/C=C(\C)c1ccccc1 | UniProtKB P56560 | 2.72 |
